assay: Skin-Pampa assay; format: in vitro ADME; conditions: PAMPA

molecule: CCCCCCCC(=O)OCn1ccc2c(N(C)[C@H]3CN(C(=O)CC#N)CC[C@H]3C)ncnc21 [Example 1]
readout unit: ×10⁻⁶ cm/s
Papp at 7 h, 200 µM: 1.57

----------
assay: Skin-Pampa assay; type: in vitro ADME; settings: Skin-Pampa, 7 hours of incubation, 12 wells in parallel, HPLC detection; read-out: Pe (effective permeability coefficient)

compound: C[C@@H]1CCN(C(=O)CC#N)C[C@@H]1N(C)c1ncnc2[nH]ccc12 [Tofacitinib, reference compound]
readout unit: ×10⁻⁶ cm/s
Papp at 7 h, 200 µM: 0.36
--
compound: NC(=O)c1cnc2[nH]ccc2c1N[C@@H]1[C@@H]2CC3C[C@H]1C[C@@](O)(C3)C2 [Peficitinib, reference compound]
readout unit: ×10⁻⁶ cm/s
Papp at 7 h, 200 µM: 0.11
--
compound: CC[C@@H]1CN(C(=O)NCC(F)(F)F)C[C@@H]1c1cnc2cnc3[nH]ccc3n12 [Upadacitinib, reference compound]
readout unit: ×10⁻⁶ cm/s
Papp at 7 h, 200 µM: 0.11
--
compound: CCCCCCCCCC(=O)OCn1ccc2c(N(C)[C@H]3CN(C(=O)CC#N)CC[C@H]3C)ncnc21
readout unit: ×10⁻⁶ cm/s
Papp at 7 h, 200 µM: 2.19
--
compound: CCCCC(CC)CCC(=O)OCn1ccc2c(N(C)[C@H]3CN(C(=O)CC#N)CC[C@H]3C)ncnc21 (stereo partly drawn)
readout unit: ×10⁻⁶ cm/s
Papp at 7 h, 200 µM: 3.13
--
compound: N#CCC1(n2cc(-c3ncnc4[nH]ccc34)cn2)CN(C2CCN(C(=O)c3ccnc(C(F)(F)F)c3F)CC2)C1 [Itacitinib, reference compound]
readout unit: ×10⁻⁶ cm/s
Papp at 7 h, 200 µM: 0.13
--
compound: CCCCCCCCC(=O)OCn1ccc2c(N(C)[C@H]3CN(C(=O)CC#N)CC[C@H]3C)ncnc21
readout unit: ×10⁻⁶ cm/s
Papp at 7 h, 200 µM: 2.98
--
compound: CCCCC(CC)CCC(=O)OCn1ccc2c(-c3cnn(C4(CC#N)CN(C5CCN(C(=O)c6ccnc(C(F)(F)F)c6F)CC5)C4)c3)ncnc21 (stereo not drawn)
readout unit: ×10⁻⁶ cm/s
Papp at 7 h, 200 µM: 1.26
--
compound: CCCCC(CC)CCC(=O)OCn1ccc2c1ncc1ncc([C@H]3CN(C(=O)NCC(F)(F)F)C[C@H]3CC)n12 (stereo partly drawn)
readout unit: ×10⁻⁶ cm/s
Papp at 7 h, 200 µM: 0.81
--
compound: CCCCC(CC)CCC(=O)OCn1ccc2c(NC3C4CC5CC3CC(O)(C5)C4)c(C(N)=O)cnc21 (stereo not drawn)
readout unit: ×10⁻⁶ cm/s
Papp at 7 h, 200 µM: 1.07
--
compound: CN1C(C(=O)Nc2ccccn2)=C(O)c2ccccc2S1(=O)=O [Piroxicam, reference compound]
readout unit: ×10⁻⁶ cm/s
Papp at 7 h, 200 µM: 1.84
--
compound: CCCCCCCCCCCC(=O)OCn1ccc2c(N(C)[C@H]3CN(C(=O)CC#N)CC[C@H]3C)ncnc21
readout unit: ×10⁻⁶ cm/s
Papp at 7 h, 200 µM: 2.78

----------
assay: Skin-Pampa assay; format: in vitro ADME; conditions: Skin-Pampa Pe of prodrug relative to its prototype drug
parameter: Multiplicity (relative to the prototype drug)

compound: CCCCCCCC(=O)OCn1ccc2c(N(C)[C@H]3CN(C(=O)CC#N)CC[C@H]3C)ncnc21 [Example 1]
reported measurement: 4.31-4.46
//
compound: CCCCCCCCCCCC(=O)OCn1ccc2c(N(C)[C@H]3CN(C(=O)CC#N)CC[C@H]3C)ncnc21 [Example 5]
reported measurement: 6.88-8.15
//
compound: CCCCCCCCC(=O)OCn1ccc2c(N(C)[C@H]3CN(C(=O)CC#N)CC[C@H]3C)ncnc21 [Example 7]
reported measurement: 7.38-10.08
//
compound: CCCCC(CC)CCC(=O)OCn1ccc2c(N(C)[C@H]3CN(C(=O)CC#N)CC[C@H]3C)ncnc21 (some centres unmarked) [Example 4]
reported measurement: 8.25-8.92
//
compound: CCCCC(CC)CCC(=O)OCn1ccc2c(-c3cnn(C4(CC#N)CN(C5CCN(C(=O)c6ccnc(C(F)(F)F)c6F)CC5)C4)c3)ncnc21 (centres unmarked) [Example 15]
reported measurement: 5.8-19.5
//
compound: CCCCC(CC)CCC(=O)OCn1ccc2c1ncc1ncc([C@H]3CN(C(=O)NCC(F)(F)F)C[C@H]3CC)n12 (some centres unmarked) [Example 14]
reported measurement: 6.81-8.83
//
compound: CCCCCCCCCC(=O)OCn1ccc2c(N(C)[C@H]3CN(C(=O)CC#N)CC[C@H]3C)ncnc21 [Example 8]
reported measurement: 5.29-7.67
//
compound: CCCCC(CC)CCC(=O)OCn1ccc2c(NC3C4CC5CC3CC(O)(C5)C4)c(C(N)=O)cnc21 (centres unmarked) [Example 13]
reported measurement: 8.59-15.6

----------
assay: Skin-Pampa assay; type: in vitro ADME; conditions: Skin-Pampa, 7 hours of incubation, 12 wells in parallel, HPLC detection
LogPe under -6 gets rule met, anything at or over -6 gets rule not met.

molecule: N#CCC1(n2cc(-c3ncnc4[nH]ccc34)cn2)CN(C2CCN(C(=O)c3ccnc(C(F)(F)F)c3F)CC2)C1 [Itacitinib, reference compound]
label class: rule met

molecule: NC(=O)c1cnc2[nH]ccc2c1N[C@@H]1[C@@H]2CC3C[C@H]1C[C@@](O)(C3)C2 [Peficitinib, reference compound]
label class: rule met

molecule: CCCCCCCCCCCC(=O)OCn1ccc2c(N(C)[C@H]3CN(C(=O)CC#N)CC[C@H]3C)ncnc21
label class: rule not met

molecule: CCCCCCCCCC(=O)OCn1ccc2c(N(C)[C@H]3CN(C(=O)CC#N)CC[C@H]3C)ncnc21
label class: rule not met

molecule: CN1C(C(=O)Nc2ccccn2)=C(O)c2ccccc2S1(=O)=O [Piroxicam, reference compound]
label class: rule not met

molecule: C[C@@H]1CCN(C(=O)CC#N)C[C@@H]1N(C)c1ncnc2[nH]ccc12 [Tofacitinib, reference compound]
label class: rule met

molecule: CCCCC(CC)CCC(=O)OCn1ccc2c(N(C)[C@H]3CN(C(=O)CC#N)CC[C@H]3C)ncnc21 (stereo partly drawn)
label class: rule not met

molecule: CC[C@@H]1CN(C(=O)NCC(F)(F)F)C[C@@H]1c1cnc2cnc3[nH]ccc3n12 [Upadacitinib, reference compound]
label class: rule met

molecule: CCCCCCCCC(=O)OCn1ccc2c(N(C)[C@H]3CN(C(=O)CC#N)CC[C@H]3C)ncnc21
label class: rule not met

----------
Assay: Skin-Pampa assay
Format: in vitro ADME
Details: Skin-Pampa, 7 hours of incubation, 12 wells in parallel, HPLC detection
Description: • 1. Hydrate the Skin-Pampa membrane with hydration solution overnight. • 2. Dissolve each compound to be tested in DMSO and prepare 0.5 mL 20 mM solutions of the test compounds. Take 50 uL of solutions of the test compounds to the corresponding 5 mL of donor solution and mix well. • 3. […] The Skin-Pampa parameters are calculated according to the following equation […]

compound: CCCCC(CC)CCC(=O)OCn1ccc2c(-c3cnn(C4(CC#N)CN(C5CCN(C(=O)c6ccnc(C(F)(F)F)c6F)CC5)C4)c3)ncnc21 (stereo not drawn)
LogPe: −5.90
--
compound: CCCCC(CC)CCC(=O)OCn1ccc2c1ncc1ncc([C@H]3CN(C(=O)NCC(F)(F)F)C[C@H]3CC)n12 (stereo partly drawn)
LogPe: −6.09
--
compound: CCCCC(CC)CCC(=O)OCn1ccc2c(NC3C4CC5CC3CC(O)(C5)C4)c(C(N)=O)cnc21 (stereo not drawn)
LogPe: −6.01
